Target: T1, Human EphA2 (Ecto), C-terminal polyHis (Human, UniProt P29317 24-537)
T1 construct: extracellular domain; R&D systems 3035-A2 or in-house
T1 sequence (P29317 24-537): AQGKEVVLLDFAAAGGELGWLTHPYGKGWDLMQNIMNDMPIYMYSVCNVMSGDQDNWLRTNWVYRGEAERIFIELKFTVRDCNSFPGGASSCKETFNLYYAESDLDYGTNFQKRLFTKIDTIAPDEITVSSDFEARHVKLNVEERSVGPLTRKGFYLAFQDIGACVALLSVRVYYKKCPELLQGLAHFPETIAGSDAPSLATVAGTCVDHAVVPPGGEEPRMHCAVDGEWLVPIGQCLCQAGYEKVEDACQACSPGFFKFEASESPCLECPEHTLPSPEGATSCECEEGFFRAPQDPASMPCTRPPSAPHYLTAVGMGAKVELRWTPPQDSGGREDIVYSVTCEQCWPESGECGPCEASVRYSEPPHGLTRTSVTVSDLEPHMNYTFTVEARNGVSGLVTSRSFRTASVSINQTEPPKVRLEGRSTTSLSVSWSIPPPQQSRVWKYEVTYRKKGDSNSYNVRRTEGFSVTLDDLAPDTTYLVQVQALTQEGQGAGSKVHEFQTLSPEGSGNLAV
Assay: FP competition vs Reference Compound C
*1 amine or outer side, *2 acyl side, *3 side chain or, on linkers, in order; H or OH if unused. Bridges are numbered along the chain shown (N, C = ends). Where no end group is shown, it is not given here. [ ]: non-standard residue; d: D form. TATA = O=C(CC[*:1])N1CN(C(=O)CC[*:2])CN(C(=O)CC[*:3])C1; 2Nal = N[C@@H](Cc1ccc2ccccc2c1)C(=O)O
measuredQuantity: pKi
# log scale: pKi equals minus log10 of the concentration in mol/L

ACPLVNPLCLHPG[2Nal]SCRGQ (linker 2-9-16 via TATA; not fully specified (C-terminus); printed as ACPLVNPLCLHPG(2Nal)SCRGQ) [Compound 93]    6.64

We now examine a further binder.
# input Indicate the recorded pKi value for this binder: ACVPDRRCAFENVCVDH (linker 2-8-14 via TATA; not fully specified (C-terminus)) [Compound 25]
# output 7.01
